# Tested on: BT-549 breast
# assay comment: NCI tumour cell line growth inhibition, 48 h
measured metric: GI50

>>> assay_value("CCSc1nc(NC(C)c2ccccc2)c2cnn(CO)c2n1 (centres undefined)")
"17.7 µM"
>>> assay_value("CC(=O)OC1CC2C(C)(C)CCC[C@]2(C)C2=C1C(O)=C(C(C)C)C(=O)C2=O (some centres undefined)")
"1.16 µM"
>>> assay_value("O=C(COc1cccc(/C=C2\\COc3ccccc3C2=O)c1)c1ccccc1")
"5.3 µM"
>>> assay_value("O=C1Nc2ccc(O)cc2/C1=C\\c1ccncc1")
"15.2 µM"
>>> assay_value("CC(C)C(=O)Nc1ccc(-c2nc(-c3cccc(OCCN4CCOCC4)c3)c(-c3ccnc(Br)c3)[nH]2)cc1")
"2.82 µM"
>>> assay_value("Clc1ccc(-c2nc3c(-c4ccccc4)nc(-c4ccccc4)cn3c2-c2ccc(Cl)cc2)cc1")
"> 100 µM"
>>> assay_value("CC(C)(C)[Si](C)(C)OC1[C@@H](O[Si](C)(C)C(C)(C)C)[C@@H](CNC(=O)NC(=O)NC(=O)CCl)O[C@H]1n1cnc2c(NC(=O)Nc3ccccc3)ncnc21 (some centres undefined)")
"6.57 µM"
>>> assay_value("COc1ccc(CN2C(=O)/C(=C\\C(=O)c3ccc(OCCN4CCCC4)cc3)c3ccccc32)cc1")
"10.6 µM"
>>> assay_value("O=C(NCCCl)NCCN1c2nc3ccccc3cc2Sc2cc3ccccc3nc21")
"7.01 µM"

====

# Tested on: KM12 colon
# assay comment: NCI tumour cell line growth inhibition, 48 h
measured metric: TGI

>>> assay_value("O=C1Nc2ccc(O)cc2/C1=C\\c1ccncc1")
"46.4 µM"
>>> assay_value("COC(=O)C1CC(c2ccc(Cl)cc2)=NO1 (stereo unspecified)")
"> 100 µM"
>>> assay_value("Cc1occc1C(=S)Nc1ccc(Cl)c(C(=O)OCC(C)C)c1")
"27.5 µM"
>>> assay_value("N#CCCN(C1=NN(C(=O)CC(=O)Nc2ccc(Cl)cc2)C(c2ccccc2)C1)c1ccc(Cl)cc1 (stereo unspecified)")
"> 100 µM"
>>> assay_value("O=C(CC(Cc1ccccc1)c1ccc(Oc2ccccc2)cc1)Nc1cccc(Cl)c1 (stereo unspecified)")
"> 100 µM"
>>> assay_value("CC1=NNC(=O)C1C1CC(c2c[nH]c3ccccc23)=NN(c2ccccc2)C1=O (stereo unspecified)")
"> 100 µM"
>>> assay_value("COc1ccc(OC)c(N=Cc2cc(OC)c(OC)c(OC)c2)c1")
"> 100 µM"
>>> assay_value("CO[C@H](C(=O)O[C@H]1C(=O)N2CC[C@@H]3CCC[C@H]1C32C)c1ccccc1 (stereo partly specified)")
"> 100 µM"
>>> assay_value("CC(C)C1CC(CO)(CNc2nc(N)nc(Cl)c2/C=N\\O)C1 (stereo unspecified)")
"18.3 µM"
>>> assay_value("N#CC(C#N)=Cc1ccc(C(O)P(=O)(O)O)cc1 (stereo unspecified)")
"> 100 µM"
>>> assay_value("CC(=O)c1cc(CC2Cc3cc4c(cc3C2=O)CCC4)cc2c1CCC2 (stereo unspecified)")
"> 100 µM"

====

# Tested on: MDA-MB-435
# assay comment: NCI tumour cell line growth inhibition, 48 h
Listed here are compounds together with their documented TGI.
measured metric: TGI

>>> assay_value("O=C(c1cc(Cl)cc(Cl)c1)N(Cc1cccnc1)C(=S)N(Cc1cccnc1)C(=O)c1cc(Cl)cc(Cl)c1")
"> 100 µM"
>>> assay_value("Cc1ccc(N=NN(C)C(C)C(O)Cc2ccccc2)cc1 (stereo not given)")
"> 100 µM"
>>> assay_value("COc1ccc(NC(=S)C#N)cc1")
"> 100 µM"
>>> assay_value("Nc1c(C(=O)c2ccc(C#CCN3CCOCC3)cc2)cnn1-c1ccc(F)cc1")
"> 25 µM"
>>> assay_value("CCOC(=O)NC(Nc1ccc(S(=O)(=O)Nc2ccc(OC)nn2)cc1)(C(F)(F)F)C(F)(F)F")
"35.8 µM"

====

# Tested on: MCF7 breast
# assay comment: NCI tumour cell line growth inhibition, 48 h
Listed here are molecules together with their documented TGI.
measured metric: TGI (µM)

>>> assay_value("O=C1C(Cl)=C(N2CCN(CCOCCO)CC2)C(=O)c2ccccc21")
14.4
>>> assay_value("Cc1ccc(S(=O)(=O)OCC(=O)Nc2ccc(C(=O)O)c(O)c2)cc1")
121
>>> assay_value("CC(C)(C)CNCCCNc1ccc(Cl)cc1")
46
>>> assay_value("CC(C)C(=O)Nc1ccc(-c2nc(-c3cccc(OCCN4CCOCC4)c3)c(-c3ccnc(Br)c3)[nH]2)cc1")
4.92
>>> assay_value("c1ccc(COCC[P+](c2ccccc2)(c2ccccc2)c2ccccc2)cc1")
7.27
>>> assay_value("O=C(/C=C\\c1ccsc1)c1ccccc1")
6.72
>>> assay_value("O=C(CC(Cc1ccccc1)c1ccc(Oc2ccccc2)cc1)Nc1cccc(Cl)c1 (stereo not drawn)")
18.3
>>> assay_value("CCC1(OC(=O)CNC)C(=O)OCc2c1cc1n(c2=O)Cc2cc3ccccc3nc2-1 (stereo not drawn)")
0.198
>>> assay_value("O=c1ccn(Cc2ccccc2CCl)c(=O)[nH]1")
77.9
>>> assay_value("O=[N+]([O-])c1ccc(NNN=Nc2ccc(-c3nc4ccccc4[nH]3)cc2)c([N+](=O)[O-])c1")
57.6
>>> assay_value("COC1=CC(c2ccc[nH]2)=N/C1=C\\c1[nH]c(C)c(C(=O)Oc2ccccc2)c1C")
1.49
>>> assay_value("CCCCCCCCCC(=O)NCCc1c[nH]c2ccc(OC)cc12")
33.7
>>> assay_value("O=C(/C=C\\c1cc(Br)ccc1O)/C=C/c1cc(Br)ccc1O")
2.13
>>> assay_value("N#CC(NNC(=O)c1c(Cl)c(Cl)c(Cl)c(Cl)c1-c1nc2ccc(C(=O)c3ccccc3)cc2[nH]1)c1ccccc1 (stereo not drawn)")
12.7
>>> assay_value("CC(O)CC(=O)CO[C@H]1[C@H](O)[C@@H](O)[C@@H](O)[C@@H]2NC(=O)c3c(cc4c(c3O)OCO4)[C@H]21 (stereo partly drawn)")
0.461
>>> assay_value("Clc1cc2nc(C3CCCCO3)[nH]c2cc1Cl (stereo not drawn)")
36.5

====

# Test system: SF-539 CNS
# assay comment: NCI tumour cell line growth inhibition, 48 h
measured metric: TGI

>>> assay_value("CC1(C)CCCC2CC2CCC(C)(C)C1=O (stereo unspecified)")
"> 100 µM"
>>> assay_value("CC1OC(OC2C(OC(=O)[C@]34CCC(C)(C)CC3C3=CCC5[C@@]6(C)C[C@H](O)[C@H](OC7OC(COC8OC(CO)C(O)C(O)C8O)C(O)C(O)C7O)[C@@](C)(C(=O)O)C6CC[C@@]5(C)C3(C)CC4)OCC(O)C2O)C(O)C(O)C1OC1OCC(O)C(O)C1O (stereo partly specified)")
"> 100 µM"
>>> assay_value("O=C(COc1cccc(/C=C2\\COc3ccccc3C2=O)c1)c1ccccc1")
"29 µM"
>>> assay_value("CC12CCCC(C#N)(C1)OC2=O (stereo unspecified)")
"> 100 µM"
>>> assay_value("COC(C)(C)[C@@H]1CCCN1C1=C(C)C(=O)OC1")
"> 100 µM"
>>> assay_value("CCOC(CN(C)C(=O)Nc1ccc(Cl)c(Cl)c1)OCC")
"> 10 µM"
>>> assay_value("O=C(CN(Cc1ccccc1)Cc1ccccc1)N1CCc2c([nH]c3ccccc23)C1c1cccnc1 (stereo unspecified)")
"26.6 µM"
>>> assay_value("COC(O)C(=O)c1c2c(cc3c1CCC3)CCC2 (stereo unspecified)")
"> 100 µM"
>>> assay_value("COC(=O)C1CC(c2ccc(Cl)cc2)=NO1 (stereo unspecified)")
"> 100 µM"
>>> assay_value("O=C(O)C1CC(C2CCCCN2)CN2CCCCC12 (stereo unspecified)")
"> 100 µM"
>>> assay_value("OCC1C2CCC3(OCCO3)C12 (stereo unspecified)")
"> 100 µM"

====

# System: UACC-62 melanoma
# assay comment: NCI tumour cell line growth inhibition, 48 h
Listed here are compounds together with their documented TGI.
measured metric: TGI

>>> assay_value("COc1ccc(C[n+]2cccc(O)c2)cc1")
"> 100 µM"
>>> assay_value("O=C(COc1cccc(/C=C2\\COc3ccccc3C2=O)c1)c1ccccc1")
"10.2 µM"
>>> assay_value("COc1cccc(C2c3cc4c(cc3OC(NNC(N)=O)C2C)OCO4)c1O (stereo not given)")
"> 100 µM"
>>> assay_value("Cc1nn(C(=O)c2ccc(Cl)cc2)c2c1C(c1ccccc1O)SC(N)=N2 (stereo not given)")
"> 10 µM"
>>> assay_value("O=C(CN(Cc1ccccc1)Cc1ccccc1)N1CCc2c([nH]c3ccccc23)C1c1cccnc1 (stereo not given)")
"30.7 µM"
>>> assay_value("CC12CC/C(=N/NC(N)=O)C3C1CCCC32")
"> 100 µM"
>>> assay_value("CCN(CC)CCCC(C)Nc1c2ccc(Cl)cc2nc2cc(Cl)ccc12 (stereo not given)")
"16.1 µM"
>>> assay_value("C/C(=N\\Nc1nc2ccccc2o1)c1ncccn1")
"0.449 µM"
>>> assay_value("Fc1cc(C2=Nn3c(CNc4ccc(Cl)cc4)nnc3S/C2=C\\c2ccc(-c3ccc(Cl)cc3)o2)c(Cl)cc1Cl")
"55.8 µM"
>>> assay_value("CN1C(=O)N/C(=C\\c2ccc(S(=O)(=O)N/N=C/c3ccccc3)cc2)C1=O")
"> 100 µM"
